All values here come from patent US10189809B2.

Give inhibition at 3 µM for every item shown.
- System: Thoracic aortic rings
- assay_explanation: Alternative thoracic aortic rings assay (Example 19b; resting tension as 100% inhibition)
- Parameters: species or system rat
- protocol_conditions: Rattus norvegicus; 3 μM, Table 10B; read-out: Percent Relaxation at 3 μM
- Protocol: Thoracic aortic rings were dissected from anesthetized (isoflurane) male Sprague-Dawley rats weighing 275-299 g. Tissues were immediately transferred to ice-cold Krebs-Henseleit solution, which had been aerated with 95% O2 and 5% CO2 for 30 minutes. […] EC50 values were calculated from concentration-response curves generated with GraphPad Prism Software.

>  <smiles_entry>
O=C(Nc1cnc(-c2cc(-c3ccon3)n(Cc3ccccc3F)n2)nc1O)c1ccccc1

>  <inhibition at 3 µM>
40 to 60%

$$$$
>  <smiles_entry>
CC1(C(=O)Nc2cnc(-c3cc(-c4ccon4)n(Cc4ccccc4F)n3)nc2N)CC1

>  <inhibition at 3 µM>
60 to 80%

$$$$
>  <smiles_entry>
COc1ccccc1C(=O)Nc1cnc(-c2cc(-c3ccon3)n(Cc3ccccc3F)n2)nc1N

>  <inhibition at 3 µM>
80 to 100%

$$$$
>  <smiles_entry>
Nc1nc(-c2cc(-c3ccon3)n(Cc3ccccc3F)n2)ncc1NC(=O)c1ccncc1

>  <inhibition at 3 µM>
100 to 120%

$$$$
>  <smiles_entry>
N#CC1(C(=O)Nc2cnc(-c3cc(-c4ccon4)n(Cc4ccccc4F)n3)nc2N)CC1

>  <inhibition at 3 µM>
100 to 120%

$$$$
>  <smiles_entry>
Nc1nc(-c2cc(-c3ccon3)n(Cc3ccccc3F)n2)ncc1NC(=O)C1(C(F)(F)F)CC1

>  <inhibition at 3 µM>
80 to 100%

$$$$
>  <smiles_entry>
Cc1ccccc1C(=O)Nc1cnc(-c2cc(-c3ccon3)n(Cc3ccccc3F)n2)nc1N

>  <inhibition at 3 µM>
100 to 120%

$$$$
>  <smiles_entry>
COC(=O)Nc1cnc(-c2cc(-c3ccon3)n(Cc3ccccc3F)n2)nc1N

>  <inhibition at 3 µM>
100 to 120%

$$$$
>  <smiles_entry>
CS(=O)(=O)c1cnc(-c2cc(-c3ccon3)n(Cc3ccccc3F)n2)nc1O

>  <inhibition at 3 µM>
80 to 100%

$$$$
>  <smiles_entry>
O=S(=O)(c1ccccc1)c1cnc(-c2cc(-c3ccon3)n(Cc3ccccc3F)n2)nc1O

>  <inhibition at 3 µM>
60 to 80%

$$$$

I'm hoping you can list inhibition at 3 µM for every molecule here, please.
1. Oc1nc(-c2cc(-c3ccon3)n(Cc3ccccc3F)n2)ncc1F
2. Cc1cnc(-c2cc(-c3ccon3)n(Cc3ccccc3F)n2)nc1N
3. CC(C)(C)OC(=O)Nc1cnc(-c2cc(-c3ncco3)n(Cc3ccccc3F)n2)nc1N

result:
["100 to 120%", "60 to 80%", "80 to 100%"]

I'm hoping you can list inhibition at 3 µM for every molecule here, please.
1. CC(=O)Nc1cnc(-c2cc(-c3ncco3)n(Cc3ccccc3F)n2)nc1N
2. Cc1csc(-c2cc(-c3ncccn3)nn2Cc2ccccc2F)n1
3. Nc1ccnc(-c2cc(-c3cnco3)n(Cc3ccccc3F)n2)n1
4. Nc1nc(-c2cc(-c3ncco3)n(Cc3ccccc3F)n2)ncc1F

result:
100 to 120%
60 to 80%
40 to 60%
80 to 100%

====

- measured_target: soluble guanylate cyclase (sGC) (Homo sapiens (Human), UniProt Q02108+Q02153)
- Sequence (Q02153 whole entry): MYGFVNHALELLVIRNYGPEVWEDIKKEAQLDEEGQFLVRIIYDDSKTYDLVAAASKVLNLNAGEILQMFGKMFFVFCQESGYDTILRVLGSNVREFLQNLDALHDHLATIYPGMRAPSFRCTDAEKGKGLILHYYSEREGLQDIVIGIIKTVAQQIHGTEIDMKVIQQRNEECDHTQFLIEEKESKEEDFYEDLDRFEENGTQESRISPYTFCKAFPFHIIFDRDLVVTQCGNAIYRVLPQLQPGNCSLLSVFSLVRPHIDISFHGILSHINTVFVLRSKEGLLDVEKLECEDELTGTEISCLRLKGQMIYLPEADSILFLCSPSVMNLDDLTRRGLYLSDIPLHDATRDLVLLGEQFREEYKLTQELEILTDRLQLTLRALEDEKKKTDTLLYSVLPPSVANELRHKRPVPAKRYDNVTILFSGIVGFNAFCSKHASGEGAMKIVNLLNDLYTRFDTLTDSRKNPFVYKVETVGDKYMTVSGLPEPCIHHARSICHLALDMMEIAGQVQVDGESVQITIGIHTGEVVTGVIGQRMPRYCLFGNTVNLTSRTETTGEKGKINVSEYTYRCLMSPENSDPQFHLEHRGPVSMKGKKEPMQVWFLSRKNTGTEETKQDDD
- Sequence (Q02108 whole entry): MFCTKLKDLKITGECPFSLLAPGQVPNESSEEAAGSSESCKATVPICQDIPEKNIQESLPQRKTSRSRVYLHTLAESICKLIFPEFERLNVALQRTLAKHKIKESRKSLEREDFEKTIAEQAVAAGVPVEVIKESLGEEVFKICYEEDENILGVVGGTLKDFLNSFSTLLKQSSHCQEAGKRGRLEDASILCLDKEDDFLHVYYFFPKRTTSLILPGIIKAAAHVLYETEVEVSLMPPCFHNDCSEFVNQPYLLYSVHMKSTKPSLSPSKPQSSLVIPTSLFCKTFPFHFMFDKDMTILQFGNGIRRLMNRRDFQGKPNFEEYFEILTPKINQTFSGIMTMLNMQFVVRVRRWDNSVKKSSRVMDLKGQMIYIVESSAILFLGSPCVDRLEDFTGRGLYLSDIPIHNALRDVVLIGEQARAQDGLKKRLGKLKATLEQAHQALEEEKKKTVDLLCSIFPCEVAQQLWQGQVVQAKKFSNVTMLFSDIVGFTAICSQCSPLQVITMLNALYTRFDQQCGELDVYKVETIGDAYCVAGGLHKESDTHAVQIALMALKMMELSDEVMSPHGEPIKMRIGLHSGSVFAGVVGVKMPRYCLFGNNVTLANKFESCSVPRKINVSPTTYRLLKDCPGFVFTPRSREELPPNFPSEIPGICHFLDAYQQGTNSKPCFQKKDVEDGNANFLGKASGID
- assay_explanation: sGC-HEK-cGMP assay run with SNP incubation (HEK WC assay)
- Format: cell-based
- protocol_conditions: read-out: HEK WC Assay (% Emax at 10 uM/with 10 uM SNP)
metric_name: Emax at 10 µM

Recorded results for 8 compounds are shown here.
>  <smiles_entry>
Fc1ccccc1Cn1nc(-c2ncccn2)cc1-c1cccnc1

>  <result>
0 to 10%

$$$$
>  <smiles_entry>
Fc1ccccc1Cn1nc(-c2ccccn2)cc1-c1ccccc1

>  <result>
0 to 10%

$$$$
>  <smiles_entry>
Fc1ccccc1Cn1nc(-c2ccc(Br)cn2)cc1-c1ccccn1

>  <result>
0 to 10%

$$$$
>  <smiles_entry>
Fc1ccccc1Cn1nc(-c2ncccn2)cc1-c1cc2ccccc2o1

>  <result>
0 to 10%

$$$$
>  <smiles_entry>
COc1cccc(-c2cc(-c3ccccn3)nn2Cc2ccccc2F)n1

>  <result>
0 to 10%

$$$$
>  <smiles_entry>
Cc1ccc(-c2cc(-c3ncccn3)nn2Cc2ccccc2F)cc1

>  <result>
0 to 10%

$$$$
>  <smiles_entry>
Fc1ccccc1Cn1nc(-c2ccccn2)cc1-c1ccccn1

>  <result>
0 to 10%

$$$$
>  <smiles_entry>
Fc1ccccc1Cn1nc(-c2ccccn2)cc1-c1nccs1

>  <result>
20 to 40%

$$$$

I'm hoping you can list Emax at 10 µM for every compound here, please.
1. Fc1cccc(-c2cc(-c3ccccn3)nn2Cc2ccccc2F)c1
2. Cc1cc(-c2cc(-c3ncccn3)nn2Cc2ccccc2F)c(C)s1
3. Cc1ccc(-c2c(C#N)c(-c3ncccn3)nn2Cc2ccccc2F)cc1
4. Cc1nnc(-c2cc(-c3ccccn3)nn2Cc2ccccc2F)o1
5. Fc1ccccc1Cn1nc(-c2ccccn2)cc1-c1ccncc1
6. Fc1ccccc1Cn1nc(-c2ncccn2)cc1-c1cccs1
7. COc1ccc(-c2cc(-c3ncccn3)nn2Cc2ccccc2F)cc1

result:
0 to 10%
0 to 10%
0 to 10%
0 to 10%
0 to 10%
20 to 40%
0 to 10%

====

- measured_target: soluble guanylate cyclase (sGC) (Homo sapiens (Human), UniProt Q02108+Q02153)
- assay_explanation: sGC-HEK-cGMP assay run with SNP incubation (HEK WC assay)
- Assay type: cell-based
- protocol_conditions: read-out: HEK WC Assay (% Emax at 10 μM/with 10 uM SNP)
metric_name: Emax at 10 µM

Recorded results for 3 compounds are shown here.
>  <compound>
CCOC(=O)c1cnc(-c2cc(-c3ccon3)n(Cc3ccccc3F)n2)nc1N [Compound I-131]

>  <Emax at 10 µM>
60 to 80%

$$$$
>  <compound>
Nc1nc(-c2cc(-c3ccon3)n(Cc3ccccc3F)n2)ncc1C(=O)O [Compound I-132]

>  <Emax at 10 µM>
40 to 60%

$$$$
>  <compound>
COC(=O)Nc1c(N)nc(-c2cc(-c3ncco3)n(Cc3ccccc3F)n2)nc1N [Compound I-99]

>  <Emax at 10 µM>
20 to 40%

$$$$

I'm hoping you can list Emax at 10 µM for every compound here, please.
1. COC(=O)N(C)c1c(N)nc(-c2cc(-c3ncco3)n(Cc3ccccc3F)n2)nc1N [Compound I-100]
2. Cl.Nc1cnc(-c2cc(-c3ccon3)n(Cc3ccccc3F)n2)nc1N [Compound I-107, hydrochloride]
3. Fc1ccccc1Cn1nc(-c2ncccn2)cc1C1CC1 [Compound I-90]
4. Cc1nc2c(N)nc(-c3cc(-c4nccs4)n(Cc4ccccc4F)n3)nc2[nH]1 [Compound I-95]

result:
1. 20 to 40%
2. 60 to 80%
3. 0 to 10%
4. 10 to 20%

I'm hoping you can list Emax at 10 µM for every compound here, please.
1. CC(C)(C)CC(=O)Nc1cnc(-c2cc(-c3ccon3)n(Cc3ccccc3F)n2)nc1N [Compound I-124]
2. COC(=O)N(C)c1c(N)nc(-c2cc(-c3ccsc3)n(Cc3ccccc3F)n2)nc1N [Compound I-72]
3. Cc1cc(N)nc(-c2cc(-c3ccon3)n(Cc3ccccc3F)n2)n1 [Compound I-111]
4. Nc1cc(-c2cccnc2)nc(-c2cc(-c3ccon3)n(Cc3ccccc3F)n2)n1 [Compound I-116]
5. Fc1ccccc1Cn1nc(-c2ncccn2)cc1-c1ccc(Cl)s1 [Compound I-91]

result:
> 120%
20 to 40%
60 to 80%
20 to 40%
0 to 10%

I'm hoping you can list Emax at 10 µM for every compound here, please.
1. Cn1c(=O)[nH]c2nc(-c3cc(-c4ncco4)n(Cc4ccccc4F)n3)nc(N)c21 [Compound I-101]
2. Nc1nc(-c2cc(-c3ccon3)n(Cc3ccccc3F)n2)ncc1NC(=O)OCc1ccccc1 [Compound I-125]

result:
["60 to 80%", "80 to 100%"]

====

- measured_target: soluble guanylate cyclase (sGC) (Homo sapiens (Human), UniProt Q02108+Q02153)
- assay_explanation: sGC-HEK-cGMP assay run with SNP incubation (HEK WC assay)
- Assay type: cell-based
- protocol_conditions: read-out: HEK WC Assay (% Emax at 1 μM with 10 uM SNP)
metric_name: Emax

Recorded results for 3 compounds are shown here.
>  <smiles_entry>
O=S(=O)(c1ccccc1)c1cnc(-c2cc(-c3ccon3)n(Cc3ccccc3F)n2)nc1O

>  <Emax>
60 to 80%

$$$$
>  <smiles_entry>
Nc1nc(-c2cc(-c3ccon3)n(Cc3ccccc3F)n2)ncc1Nc1nccs1

>  <Emax>
40 to 60%

$$$$
>  <smiles_entry>
Nc1nc(-c2cc(-c3ccon3)n(Cc3ccccc3F)n2)ncc1NC(=O)c1cccc(C(F)(F)F)c1

>  <Emax>
80 to 100%

$$$$

I'm hoping you can list Emax for every compound here, please.
1. Oc1nc(-c2cc(-c3ncco3)n(Cc3ccccc3F)n2)ncc1F
2. O=S(=O)(c1cc(Cl)ccc1Cl)c1cnc(-c2cc(-c3ccon3)n(Cc3ccccc3F)n2)nc1O
3. Oc1ccnc(-c2cc(-c3ccon3)n(Cc3ccccc3F)n2)n1
4. CCCC(F)(F)C(=O)Nc1cnc(-c2cc(-c3ccon3)n(Cc3ccccc3F)n2)nc1N
5. C=CC(C)(C)C(=O)Nc1cnc(-c2cc(-c3ccon3)n(Cc3ccccc3F)n2)nc1N

result:
1. 10 to 20%
2. 10 to 20%
3. 10 to 20%
4. 40 to 60%
5. 60 to 80%

I'm hoping you can list Emax for every compound here, please.
1. Nc1nc(-c2cc(-c3ncco3)n(Cc3ccccc3F)n2)ncc1N=C(c1ccccc1)c1ccccc1
2. Fc1ccccc1Cn1nc(-c2ncc(F)c(S)n2)cc1-c1ccon1
3. Nc1nc(-c2cc(-c3ccon3)n(Cc3ccccc3F)n2)ncc1NCc1ccccc1
4. CC(C)(C)OC(=O)n1c(=O)[nH]c2nc(-c3cc(-c4ccon4)n(Cc4ccccc4F)n3)ncc21

result:
1: 0 to 10%; 2: 20 to 40%; 3: 0 to 10%; 4: 20 to 40%

I'm hoping you can list Emax for every compound here, please.
1. CCC(C)(C)C(=O)Nc1cnc(-c2cc(-c3ccon3)n(Cc3ccccc3F)n2)nc1N
2. CC1(C(=O)Nc2cnc(-c3cc(-c4ccon4)n(Cc4ccccc4F)n3)nc2N)CCCCC1
3. Cc1cccc(C(=O)Nc2cnc(-c3cc(-c4ccon4)n(Cc4ccccc4F)n3)nc2N)c1
4. Nc1nc(-c2cc(-c3ccon3)n(Cc3ccccc3F)n2)ncc1NC(=O)C(F)(F)c1ccccc1

result:
20 to 40%
60 to 80%
60 to 80%
20 to 40%
